// values below are reported GI50
- System: SK-MEL-28
- Method: NCI tumour cell line growth inhibition, 48 h
The source made the active and inactive calls. No stated cut-off is given here; in the data, active = GI50 up to about 1.1 µM and inactive = higher. Where a SMILES comes first, the peptide text is derived from it. [ ]: non-standard residue; d: D form. The star is where a group is joined. ξ: configuration not given here. Propanoyl(3-(4-MeO-Ph)) = COc1ccc(CCC(=O)*)cc1; Thr(3ξ) = CC(O)[C@H](N)C(=O)O; dNMeL = CN[C@H](CC(C)C)C(=O)O; OBn = c1ccc(CO*)cc1; ξLac = CC(O)C(=O)O
Assay Endpoint: GI50

• COc1ccc(CCC(=O)OC(C)[C@H](NC(=O)[C@@H](CC(C)C)N(C)C(=O)[C@@H]2CCCN2C(=O)C(C)O)C(=O)OCc2ccccc2)cc1 (some centres undefined) (H-[ξLac]P[dNMeL][Thr(3ξ)](Propanoyl(3-(4-MeO-Ph)))-OBn) = 17.8 µM (inactive)
• COc1ccc2ccc3c(c2c1)CN1CCc2cc(OC)c(OC)cc2C1C3 (centres undefined) = > 100 µM (inactive)
• O=C1CSC2(CC(/C=C/c3cccc(Br)c3)=NN2c2cccc(S(=O)(=O)O)c2)N1c1nc2ccccc2s1 (centres undefined) = > 100 µM (inactive)
• CN(CCO)/N=N/c1[nH]cnc1C(N)=O = > 100 µM (inactive)
